test: Solubility in ethanol and toluene; assay type: physicochemical; settings: toluene, 27°C
metricName: Solubility, Toluene

Recorded results for 3 compounds are shown here.
Cc1cc(C(c2ccc(C(c3cc(C)c(O)c(C(C)(C)C)c3)c3cc(C)c(O)c(C(C)(C)C)c3)cc2)c2cc(C)c(O)c(C(C)(C)C)c2)cc(C(C)(C)C)c1O [Test 30] ... > 9 g/100 ml
Cc1cc(C(c2ccc(C(c3cc(C)c(O)cc3C)c3cc(C)c(O)cc3C)cc2)c2cc(C)c(O)cc2C)c(C)cc1O [Test 29] ... < .17 g/100 ml
Cc1cc(O)c(C(C)(C)C)cc1C(c1ccc(C(c2cc(C(C)(C)C)c(O)cc2C)c2cc(C(C)(C)C)c(O)cc2C)cc1)c1cc(C(C)(C)C)c(O)cc1C [Test 31] ... < .17 g/100 ml

Q. # lookup: Solubility, Toluene of Cc1cc(C(c2ccc(C(c3cc(C)c(O)c(C)c3)c3cc(C)c(O)c(C)c3)cc2)c2cc(C)c(O)c(C)c2)cc(C)c1O [Test 28]
A. < .17 g/100 ml
